# Test system: SEQID-00338 kinase activity (AMP + ATP→ADP)
# Protocol text: Kinase activity of SEQID-00338 (ADP-Glo Max Assay)
# Format: biochemical
# Particulars: 7 μg/mL, 30 minute reaction at 30° C.
// AVG percent activity relative to purified wild-type protein lookup, one value per entry
Endpoint: AVG percent activity relative to purified wild-type protein (%)

{"Molecule": "R42I: single amino acid mutant of SEQID-00338, position 42 (protein, listed as Saccharomyces cerevisiae, source: /note=\"strain ATCC 204508 / S288c\") MSSSESIRMVLIGPPGAGKGTQAPNLQERFHAAHLATGDMLISQIAKGTQLGLEAKKIMDQGGLVSDDIMVNMIKDELTNNPACKNGFILDGFPRTIPQAEKLDQMLKEQGTPLEKAIELKVDDELLVARITGRLIHPASGRSYHKIFNPPKEDMKDDVTGEALVQRSDDNADALKKRLAAYHAQTEPIVDFYKKTGIWAGVDASQPPATVWADILNKLGKD", "Units": "%", "Reported": 1.5}
{"Molecule": "R42C: single amino acid mutant of SEQID-00338, position 42 (protein, listed as Saccharomyces cerevisiae, source: /note=\"strain ATCC 204508 / S288c\") MSSSESIRMVLIGPPGAGKGTQAPNLQERFHAAHLATGDMLCSQIAKGTQLGLEAKKIMDQGGLVSDDIMVNMIKDELTNNPACKNGFILDGFPRTIPQAEKLDQMLKEQGTPLEKAIELKVDDELLVARITGRLIHPASGRSYHKIFNPPKEDMKDDVTGEALVQRSDDNADALKKRLAAYHAQTEPIVDFYKKTGIWAGVDASQPPATVWADILNKLGKD", "Units": "%", "Reported": 1.8}
{"Molecule": "R42A: single amino acid mutant of SEQID-00338, substrate binding position 42 (protein, listed as Saccharomyces cerevisiae, source: /note=\"strain ATCC 204508 / S288c\") MSSSESIRMVLIGPPGAGKGTQAPNLQERFHAAHLATGDMLASQIAKGTQLGLEAKKIMDQGGLVSDDIMVNMIKDELTNNPACKNGFILDGFPRTIPQAEKLDQMLKEQGTPLEKAIELKVDDELLVARITGRLIHPASGRSYHKIFNPPKEDMKDDVTGEALVQRSDDNADALKKRLAAYHAQTEPIVDFYKKTGIWAGVDASQPPATVWADILNKLGKD", "Units": "%", "Reported": 0.9}
{"Molecule": "D91I: single amino acid mutant of SEQID-00338, position 91 (protein, listed as Saccharomyces cerevisiae, source: /note=\"strain ATCC 204508 / S288c\") MSSSESIRMVLIGPPGAGKGTQAPNLQERFHAAHLATGDMLRSQIAKGTQLGLEAKKIMDQGGLVSDDIMVNMIKDELTNNPACKNGFILIGFPRTIPQAEKLDQMLKEQGTPLEKAIELKVDDELLVARITGRLIHPASGRSYHKIFNPPKEDMKDDVTGEALVQRSDDNADALKKRLAAYHAQTEPIVDFYKKTGIWAGVDASQPPATVWADILNKLGKD", "Units": "%", "Reported": 0.4}
